B1: RAD54B (parent)
chain: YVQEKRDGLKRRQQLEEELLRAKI

Variants of: B1
Test: protein stability index of a GFP-peptide fusion (GPS, HEK-293T) (PSI 1-6); higher = more stable;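 note: lentivirally expressed fusions sorted by FACS into six bins by GFP to DsRed ratio, PSI derived from sequencing read proportions per bin multiplied by bin number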
Settings: c terminus: a fixed tail appended
Kindly return Yes if reported protein stability index is no lower than 2; return No if it is lower.

Below, 8 variants whose answers are already recorded.
Would you say "G8K" shows protein stability index at minimum 2?
Yes

Next up: "Y1F"
No

Now the variant "Q14G"
Yes

Same thing, different variant: "R11A"
Yes

Now the same for "L9R"
No

Now this one: "K10Q"
Yes

Now the variant "E4R"
Yes

What do you have for "R6A" ?
Yes

Others:
Entry "Q14L" : is its protein stability index no less than 2?
No

"R12F" ?
Yes

Try this variant too: "E18F"
Yes

Next variant up: "Q3R"
No

Then what about the variant "E4Y" ?
Yes

Source listed as the supplement of paper PMC10567573.
